Hey, just so you know, these numbers are from patent US11014947B2.

system: ARPE-19 cell lines; conditions: compound 10 μM 1 h, then AtR 25 μM 4 h; MTT after 16-20 h; untreated cells = 100
Collected % Survival values appear next to each entry.
Lab book: enter the figure in %, no units written.

As a guide, the following entries are already answered.
[
  {
    "Compound": "CC(C)Oc1cc(O)cc(O)c1 [Compound 9b, 5-isopropoxybenzene-1,3-diol, reference compound]",
    "% Survival / %": 30.6
  },
  {
    "Compound": "CC/C=C\\C/C=C\\C/C=C\\C/C=C\\C/C=C\\C/C=C\\CCC(=O)Oc1cc(OC(=O)CC/C=C\\C/C=C\\C/C=C\\C/C=C\\C/C=C\\C/C=C\\CC)cc(OC(=O)CC/C=C\\C/C=C\\C/C=C\\C/C=C\\C/C=C\\C/C=C\\CC)c1",
    "% Survival / %": 33.3
  },
  {
    "Compound": "CC/C=C\\C/C=C\\C/C=C\\C/C=C\\C/C=C\\C/C=C\\CCC(=O)Oc1cc(O)cc(OC)c1 [Compound 13a]",
    "% Survival / %": 32.6
  }
]

Would you mind telling me what % Survival value was observed for CC/C=C\C/C=C\C/C=C\C/C=C\C/C=C\C/C=C\CCC(=O)O [DHA, docosahexaenoic acid, reference compound] ?
23.5

Again, but for CC/C=C\C/C=C\C/C=C\C/C=C\C/C=C\C/C=C\CCC(=O)Oc1cc(O)cc(OC(C)C)c1 [Compound 13b]
43.2

And what about the compound Oc1cc(O)cc(O)c1 [Phloroglucinol, phloroglucinol, reference compound] ?
35.5
